- EXPERIMENTAL_TARGET: Cdk2(H71C) (C177A) (Homo sapiens, UniProt P24941, C177A/H71C)
- Construct: poly-histidine; made in house; host or cells: E. coli
- ASSAY: Kinetic thiol consumption assay with Cdk2 mutant H71C
- Type: binding
- Parameters: key: rate constant with Cdk2 ÷ rate constant with model thiol (fold)
- CONDITION_LABEL: Cdk2 H71C, additional mutation C177A
PROPERTY_NAME: Rate enhancement, Cdk2 H71C

These recorded examples may help you get a feel for the data.
MOLECULE	Rate enhancement, Cdk2 H71C
C=CC(=O)N1CCC(c2nnc3n2CCC3)CC1	0
C=CC(=O)NCc1ccccc1	0.2836

I. C=CC(=O)Nc1nc2c(s1)CCCCCC2
II. C=CC(=O)N1CCC2(CC1)NC(=O)C1(CCCCC1)N2
III. C=CC(=O)N1CC2CCN(Cc3ccccc3)C2C1 (stereo not drawn)
IV. C=CC(=O)NCc1ccc(OC)cc1
Place the items in sequence of falling Rate enhancement, Cdk2 H71C. To answer, arrange all of the labels according to the requested order.
I, II, IV, III
(I: 0.9221, II: 0.03271, IV: 3.1842E−11, III: 0)
